# Read-out: Interferon-gamma inducible Protein 10 (IP10), CXCL10 (gene 3627)
# Test name: BSK_KF3CT_IP10: BioMAP Diversity Plus: KF3CT Assay for Interferon-gamma inducible Protein 10 (IP10) Biomarker Activity (AID 2283068)
# Condition label: primary human keratinocytes with fibroblasts; actives raise or lower the signal
# Experimental: BSK_KF3CT is a cell-based, multiplexed-readout assay that uses keratinocytes and foreskin fibroblasts, a human skin primary cell co-culture, with measurements taken at 24 hours after chemical dosing in a 96-well plate.BSK_KF3CT_IP10 is an assay component measured in the BSK_KF3CT assay. It measures IP-10 antibody related to regulation of gene expression using ELISA technology.Data from the assay component BSK_KF3CT_IP10 was analyzed into 1 assay endpoint. […]
Calls of active or inactive are those of the source. How the source made its calls: active means hit-call score of the fitted dose curve at least 0.9, where 1 is the maximum; inactive means score below 0.9.
Measure name: AC50

compound="CC1(C)C(C=C(Cl)Cl)C1C(=O)OC(C#N)c1ccc(F)c(Oc2ccccc2)c1 (stereo unspecified)" measure_name=AC50 measured_value=inactive
compound=CCC(C)(C)C(=O)OC1=C(c2ccc(Cl)cc2Cl)C(=O)OC12CCCCC2 measure_name=AC50 measured_value="29.9 µM (active)"
compound=COP(=O)(OC)OC=C(Cl)Cl measure_name=AC50 measured_value=inactive
compound="CCC(C)(NC(=O)c1cc(Cl)c(C)c(Cl)c1)C(=O)CCl (stereo unspecified)" measure_name=AC50 measured_value="10.8 µM (active)"
compound=CNC(=O)Oc1cccc(N=CN(C)C)c1 measure_name=AC50 measured_value=inactive
compound="ClC1C(Cl)C(Cl)C(Cl)C(Cl)C1Cl (stereo unspecified)" measure_name=AC50 measured_value=inactive

====

# Test name: CCTE_Mundy_HCI_hNP1_Pro_ResponderAvgInten: CCTE's Proliferation Assay in human neuroprogenitor cells, Mundy Lab (AID 2284224);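 further: human neural progenitor cells hNP1 derived from WA09 embryonic stem cells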
Results filed as inconclusive are left out. Active and inactive are the calls of the source. How the source made its calls: active means hit-call score of the fitted dose curve at least 0.9, where 1 is the maximum; inconclusive means response in the unintended direction; inactive means score below 0.9.
Outcomes: y = active, n = inactive

compound="CC1(c2ccc(Oc3ccccc3)cc2)OC(=O)N(Nc2ccccc2)C1=O (configuration not stated)" group=n
compound=O=C(O)COc1ccc(Cl)cc1Cl group=n
compound=O=C(O)C(F)(F)C(F)(F)C(F)(F)C(F)(F)C(F)(F)C(F)(F)C(F)(F)F group=n
compound=CCC(C)(C)C(=O)OC1=C(c2ccc(Cl)cc2Cl)C(=O)OC12CCCCC2 group=n
compound="CC[C@H](C)[C@H]1O[C@]2(C=C[C@@H]1C)C[C@@H]1C[C@@H](C/C=C(\\C)[C@@H](O[C@H]3C[C@H](OC)[C@@H](O[C@H]4C[C@H](OC)[C@@H](O)[C@H](C)O4)[C@H](C)O3)[C@@H](C)/C=C/C=C3\\CO[C@@H]4[C@H](O)C(C)=C[C@@H](C(=O)O1)[C@]34O)O2 (tested in a mixture with another compound)" group=y
compound="O=S1OCC2C(CO1)C1(Cl)C(Cl)=C(Cl)C2(Cl)C1(Cl)Cl (configuration not stated)" group=y
compound=CC(C)N(C(=O)COc1nnc(C(F)(F)F)s1)c1ccc(F)cc1 group=n

====

# Test name: TOX21_p53_BLA_p4_viability: Viability Assessment in the Tox21 HCT-116 p53 Agonism Beta-lactamase Assay, Phase 4 (AID 2283597);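 further: hits lower the luminescence signal meaning cytotoxicity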
Results filed as inconclusive are left out. Calls of active or inactive are those of the source. The calls were made as follows: active = hit-call score of the fitted dose curve at least 0.9, where 1 is the maximum; inconclusive = response in the unintended direction; inactive = score below 0.9.
Outcome codes: active, inactive

compound="CC(C)(C)C(O)C(Oc1ccc(Cl)cc1)n1cncn1 (configuration not stated)" group=inactive
compound=CCN(CC)C(=O)SCc1ccc(Cl)cc1 group=inactive
compound=CCc1ccc(C(=O)NN(C(=O)c2cc(C)cc(C)c2)C(C)(C)C)cc1 group=inactive
compound="CC1(c2ccc(Oc3ccccc3)cc2)OC(=O)N(Nc2ccccc2)C1=O (configuration not stated)" group=active
compound=CCCN(CCOc1c(Cl)cc(Cl)cc1Cl)C(=O)n1ccnc1 group=inactive
compound=O=C(O)C(F)(F)C(F)(F)C(F)(F)C(F)(F)C(F)(F)C(F)(F)C(F)(F)F group=inactive
compound=CCOCN(C(=O)CCl)c1c(C)cccc1CC group=inactive
compound=CNC(=O)Oc1cccc(N=CN(C)C)c1 group=inactive
compound=O=C(Nc1ccccc1)Nc1cnns1 group=inactive
compound="CC1(C)C(C=C(Cl)Cl)C1C(=O)OC(C#N)c1ccc(F)c(Oc2ccccc2)c1 (configuration not stated)" group=inactive
compound=CC(C)N(C(=O)COc1nnc(C(F)(F)F)s1)c1ccc(F)cc1 group=inactive
compound=O=C1c2ccccc2C(=O)N1SC(Cl)(Cl)Cl group=inactive
compound=COP(=S)(OC)Oc1ccc([N+](=O)[O-])cc1 group=inactive
compound=O=C(O)COc1ccc(Cl)cc1Cl group=inactive
compound=OCCOc1ccccc1 group=inactive
compound=COP(=S)(OC)Oc1ccc(SC)c(C)c1 group=inactive
compound=O=[N+]([O-])c1c(Cl)c(Cl)c(Cl)c(Cl)c1Cl group=inactive
